# System: CP250
# TEST_SUMMARY: qHTS profiling for inhibitors of Plasmodium falciparum proliferation (AID 504749);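 note: 0% = DMSO vehicle and full inhibition = artemisinin control; nearly all actives have a fitted effect of over 60% in size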
# TEST_CONTEXT: P. falciparum in erythrocytes, SYBR Green DNA, 72 h; series mostly up to 12.8 µM
Inconclusive results are not listed. Calls of active or inactive are those of the source. Calls come from the whole dose curve; as a rule, active = well fitted inhibition curve with a large enough effect; inconclusive = small, poorly fitted or top-dose-only effect; inactive = flat fitted curve, though single readings scatter.
Mark one answer only. Choices: active, inactive

These solved cases illustrate the format of a correct answer.
INSERT INTO measurements (molecule, class_label) VALUES
  ('CC1(C)[C@@H](OC(=O)CCC(=O)O)CC[C@@]2(C)[C@H]1CC[C@@]1(C)[C@H]2C(=O)C=C2[C@H]3C[C@](C)(C(=O)O)CC[C@]3(C)CC[C@@]21C', 'inactive'),
  ('CN[C@H]1[C@H](O)[C@@H](O[C@@H]2[C@H](O)[C@@H](O[C@H]3OC(CN)=CC[C@H]3N)[C@@H](N)C[C@H]2N)OC[C@@]1(C)O', 'inactive'),
  ('Nc1nc(NC2CC2)c2ncn([C@H]3C=C[C@@H](CO)C3)c2n1', 'inactive');

Task item: Dear all, I need the recorded test outcome for C=CC1=C(C(=O)O)N2C(=O)[C@@H](NC(=O)/C(=N\OCC(=O)O)c3csc(N)n3)[C@@H]2SC1 , thank you.
Reply: inactive

Task item: How about this molecule: C[C@@]12CC[C@H]3[C@@H](CCC4=CC(=O)CC[C@]43C)[C@H]1CC[C@H]2C(=O)CO
Reply: inactive

Task item: Also, CN(C)CCn1nnnc1SCC1=C(C(=O)O)N2C(=O)[C@@H](NC(=O)Cc3csc(N)n3)[C@@H]2SC1 please.
Reply: inactive

----------
// values below are reported Z-AUC
# TEST_SUMMARY: qHTS drug screen for cell cycle checkpoint inhibitors in PARPi-resistant BRCA-mutant ovarian cancer cell lines. (AID 1963452)
# TEST_CONTEXT: PEO1/OlaR viability, CellTiter-Glo luminescence, 96 h; hits give low values
# Text: Women's Malignancies Branch, Center for Cancer Research (CCR), National Cancer Institute (NCI), National Institutes of Health (NIH), Bethesda, MD Poly (ADP-ribose) polymerase inhibitors (PARPis) have changed the treatment paradigm in breast cancer gene (BRCA) - mutant high-grade serous ovarian carcinoma (HGSC). […] 6; Detection; Luminescence, PHERAstar (BMG Labtech) plate reader. […] 6. Luminescence readings were taken using PHERAstar (BMG Labtech). […]
Activity calls are given as the source filed them. Calls come from the whole dose curve.

Solved entries (count: 4):
INSERT INTO assay_data (compound_structure_string, measured_endpoint, result) VALUES
  ('Nc1ccc(F)cc1NC(=O)c1ccc(CNC(=O)/C=C/c2cccnc2)cc1', 'Z-AUC', '-1.13 (inactive)'),
  ('Cc1ccc(Nc2cc(N[C@@H]3CCCC[C@@H]3N)nnc2C(N)=O)nc1C', 'Z-AUC', '-0.241 (inactive)'),
  ('CC(C)(C)S(=O)(=O)c1ccc2nccc(Nc3n[nH]c4ccc(F)cc34)c2c1', 'Z-AUC', '-0.44 (inactive)'),
  ('O=C(Nc1ncc(SCCN2CCCC2)s1)[C@]1(c2ccc(S(=O)(=O)C3CC3)cc2)C[C@H]1C1CCCCC1', 'Z-AUC', '0.2 (inactive)');

Shift focus to the following entry.
Task item: Value lookup for Z-AUC; key = C=CC(=O)Nc1ccc(F)c(-c2ncnc3[nH]cc(C(=O)OCC)c23)c1
Reply: 0.543 (inactive)
